assay_name: ATG_E_Box_CIS: Attagene CIS-FACTORIAL HepG2 Assay for human Enhancer Box (E-box) (AID 2282936)
test_context: HepG2 E-box cis-reporter transcription, actives raise or lower the signal
Protocol: ATG_CIS is a cell-based, multiplexed-readout assay that uses HepG2, a human liver cell line, with measurements taken at 24 hours after chemical dosing in a 24-well plate.ATG_E_Box_CIS is one of 52 assay component(s) measured or calculated from the ATG_CIS assay. […] This assay endpoint, ATG_E_Box_CIS, was analyzed with bidirectional fitting relative to DMSO as the negative control and baseline of activity. […]
Active and inactive are the calls of the source. Rule for the calls: active = hit-call score of the fitted dose curve at least 0.9, where 1 is the maximum; inactive = score below 0.9.
Parameter call: string, one of t = active, f = inactive

Recorded test call requested for "COC(=O)c1sccc1S(N)(=O)=O"
f

Further cases:
Each compound tested received a call. Report the one for "Nc1nc2ccccc2[nH]1" .
f

Status in this test for CC1=NN(c2cc(S(=O)(=O)O)ccc2Cl)C(=O)C1N=Nc1ccccc1 (stereo not given) ?
f

Test call, this compound: "O=c1n(CCO)c(=O)n(CCO)c(=O)n1CCO"
f

What was the test verdict on "NCCCN1CCN(CCCN)CC1" ?
f

Which outcome was assigned to "CCOCC(=O)O" in this test?
f

Hi, do you know how "CC[C@H]1OC(=O)[C@H](C)[C@@H](O[C@H]2C[C@@](C)(OC)[C@@H](O)[C@H](C)O2)[C@H](C)[C@@H](O[C@@H]2O[C@H](C)C[C@H](N(C)C)[C@H]2O)[C@](C)(O)C[C@@H](C)C(=NOCOCCOC)[C@H](C)[C@@H](O)[C@]1(C)O" came out in this test?
f

Recorded test outcome, item CC(C)CCCC(C)CC=O (stereo not given)
f

Recorded test outcome, item "COC(=O)c1cc(Cl)ccc1[N+](=O)[O-]"
f

I'd appreciate the recorded outcome for "Cc1ccc([N+](=O)[O-])cc1S(=O)(=O)O" from this test.
f

Each compound tested received a call. Report the one for C=CCOCC(O)CCl (stereo not given) .
f

GET /call?item= "CN(C)CCCN(C)C" returns the recorded outcome of this test.
f

Call for entry "CCOC(=O)NNc1nncc2ccccc12" :
f

Answer briefly: the call reported for "CNC(=S)NN" in this assay.
f

What did this assay record as the result for "Cc1cc(C)c(C)cc1C" ?
f

Each compound tested received a call. Report the one for "CC(C)(C)c1ccc(-c2ccc(C(C)(C)C)cc2)cc1" .
f

Each compound tested received a call. Report the one for "Clc1nc2ccccc2s1" .
f

Kindly provide the recorded test outcome for the following compound: "CN(C)c1ccc(C(=N)c2ccc(N(C)C)cc2)cc1"
t

I would be grateful if you could indicate the recorded call for NC(=O)C1CO1 (stereo not given) .
f

How was "CC(C)c1ccc2c(C(C)C)cc(C(C)C)c(S(=O)(=O)O)c2c1" classified in this test?
f

---

assay_name: BSK_hDFCGF_SRB: Viability Assessment in the BioMAP Diversity Plus: hDFCGF Assay (AID 2283061);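 note: cells exposed to compound for 24 h before the read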
test_context: primary human foreskin fibroblasts
Active and inactive are the calls of the source. The calls were made as follows: active = hit-call score of the fitted dose curve at least 0.9, where 1 is the maximum; inactive = score below 0.9.
Result category, one only: active, inactive

See these solved cases before continuing.
What did the test return for "c1ccc2c(c1)ccc1cc3c(ccc4ccccc43)cc12" ?
inactive

Record request — test call for "CO[Si](OC)(OC)c1ccccc1"
inactive

Test call, this molecule: "O=C(Cl)c1cc(C(=O)Cl)cc(C(=O)Cl)c1"
active

Hi, sorry to bother you, what did the test record for "O=C(Nc1ccccc1SSc1ccccc1NC(=O)c1ccccc1)c1ccccc1" ?
inactive

Tell me the recorded outcome of this test for "CC(C)C(=O)C(C)C" .
inactive

Record request — test call for "c1ccc(-c2ccccn2)nc1"
inactive

Returns: the outcome recorded for "CCOc1nc(F)cc2nc(S(=O)(=O)Nc3c(Cl)cccc3C(=O)OC)nn12" in this assay.
inactive

Assay result, entry "CCO[Si](CCCN=C=O)(OCC)OCC" — outcome?
inactive

Please share the test call associated with "O=C1CCCN1CCO" .
inactive

I'd appreciate the recorded outcome for "S=C(NC1CCCCC1)NC1CCCCC1" from this test.
inactive

Others:
Name the outcome recorded for "COc1ccc2nc(N)sc2c1" in the assay.
inactive
